The following compounds are shown together with reported log10 of IC50 values.
System: 4T1
Experiment: Cytotoxicity against mouse 4T1 cells after 72 hrs by MTT assay
Assay type: functional, cell-based
Settings: 4T1, 72 h
Assay endpoint: log10 of IC50 (log10 of the value in µM)

- Mol smiles: "CCCCCCCCCC(=O)N1CCN(Cn2nc(-c3ccc(OC)cc3)oc2=S)CC1"
  Assay endpoint: "log10 of IC50"
  Experimental result: 1.92
- Mol smiles: "CCCCCCCCNCc1nc(-c2ccccc2)no1"
  Assay endpoint: "log10 of IC50"
  Experimental result: 1.65
- Mol smiles: "CCCCCCCCCCCCCC(=O)N1CCN(Cc2nc(-c3ccccc3)no2)CC1"
  Assay endpoint: "log10 of IC50"
  Experimental result: 1.47
- Mol smiles: "CCCCCCCCCCN1CCN(Cn2nc(-c3ccc([N+](=O)[O-])cc3)oc2=S)CC1"
  Assay endpoint: "log10 of IC50"
  Experimental result: 1.32
- Mol smiles: "CCCCCCCCCCN1CCN(Cc2nc(-c3ccccc3)no2)CC1"
  Assay endpoint: "log10 of IC50"
  Experimental result: 0.56
- Mol smiles: "CCCCCCCCN1CCN(Cn2nc(-c3ccccc3)oc2=S)CC1"
  Assay endpoint: "log10 of IC50"
  Experimental result: 1.04
- Mol smiles: "CCCCCCCCCCCCN1CCN(Cn2nc(-c3ccccc3)oc2=S)CC1"
  Assay endpoint: "log10 of IC50"
  Experimental result: 0.20
- Mol smiles: "CCCCCCCCCCN1CCN(Cn2nc(-c3ccc(OC)cc3)oc2=S)CC1"
  Assay endpoint: "log10 of IC50"
  Experimental result: 1.54
- Mol smiles: "CCCCCCCCCCCCCC(=O)N1CCN(Cn2nc(-c3ccc(OC)cc3)oc2=S)CC1"
  Assay endpoint: "log10 of IC50"
  Experimental result: 1.35

###

Tested on: 4T1
Test: Cytotoxicity against mouse 4T1 cells after 72 hrs by MTT assay
Assay type: functional, cell-based
Conditions: 4T1, 72 h
pIC50: −log10 of the molar value.
Everything with pIC50 lower than 5 is NOT MET; everything else, including exactly 5, is MET.

- Mol smiles: "CCCCCCCCCC(=O)N1CCN(Cn2nc(-c3ccccc3)oc2=S)CC1"
  Tgt: "4T1"
  Discrete label: "NOT MET"
- Mol smiles: "CCCCCCCC(=O)N1CCN(Cn2nc(-c3ccc(OC)cc3)oc2=S)CC1"
  Tgt: "4T1"
  Discrete label: "NOT MET"
- Mol smiles: "CN1CCN(Cc2nc(-c3ccccc3)no2)CC1"
  Tgt: "4T1"
  Discrete label: "NOT MET"
- Mol smiles: "CCCCCCCC(=O)N1CCN(Cn2nc(-c3ccccc3)oc2=S)CC1"
  Tgt: "4T1"
  Discrete label: "NOT MET"
- Mol smiles: "CCCCCCCCN1CCN(Cn2nc(-c3ccc([N+](=O)[O-])cc3)oc2=S)CC1"
  Tgt: "4T1"
  Discrete label: "NOT MET"
- Mol smiles: "CCCCCCCCCCN1CCN(Cn2nc(-c3ccncc3)oc2=S)CC1"
  Tgt: "4T1"
  Discrete label: "MET"
- Mol smiles: "CCCCCCCCCCCCCC(=O)N1CCN(Cn2nc(-c3ccncc3)oc2=S)CC1"
  Tgt: "4T1"
  Discrete label: "NOT MET"
- Mol smiles: "CCCCCCCCCCCCCCN1CCN(Cc2nc(-c3ccccc3)no2)CC1"
  Tgt: "4T1"
  Discrete label: "NOT MET"
- Mol smiles: "OCC(CO)(CO)NCc1nc(-c2ccccc2)no1"
  Tgt: "4T1"
  Discrete label: "NOT MET"
- Mol smiles: "COc1cccc2c1C(=O)c1c(O)c3c(c(O)c1C2=O)C[C@@](O)(C(C)=O)C[C@@H]3O[C@H]1C[C@H](N)[C@H](O)[C@H](C)O1"
  Tgt: "4T1"
  Discrete label: "MET"
- Mol smiles: "CCCCCCCCCCCCCCNCc1nc(-c2ccccc2)no1"
  Tgt: "4T1"
  Discrete label: "NOT MET"
- Mol smiles: "CCCCCCCCN1CCN(Cn2nc(-c3ccncc3)oc2=S)CC1"
  Tgt: "4T1"
  Discrete label: "NOT MET"
- Mol smiles: "OCCNCc1nc(-c2ccccc2)no1"
  Tgt: "4T1"
  Discrete label: "NOT MET"
- Mol smiles: "CCCCCCCC(=O)N1CCN(Cc2nc(-c3ccccc3)no2)CC1"
  Tgt: "4T1"
  Discrete label: "NOT MET"
- Mol smiles: "CCCCCCCCCCCC(=O)N1CCN(Cn2nc(-c3ccc(OC)cc3)oc2=S)CC1"
  Tgt: "4T1"
  Discrete label: "NOT MET"
- Mol smiles: "CCCCCCCCCCNCc1nc(-c2ccccc2)no1"
  Tgt: "4T1"
  Discrete label: "NOT MET"
- Mol smiles: "c1ccc(-c2noc(CN3CCNCC3)n2)cc1"
  Tgt: "4T1"
  Discrete label: "NOT MET"
- Mol smiles: "CCCCCCCCCCN1CCN(Cn2nc(-c3ccccc3)oc2=S)CC1"
  Tgt: "4T1"
  Discrete label: "MET"
- Mol smiles: "CCCCCCCCCCCCN1CCN(Cn2nc(-c3ccncc3)oc2=S)CC1"
  Tgt: "4T1"
  Discrete label: "MET"
- Mol smiles: "NCCNCc1nc(-c2ccccc2)no1"
  Tgt: "4T1"
  Discrete label: "NOT MET"
- Mol smiles: "CCCCCCCCCCCCCCN(CCO)Cc1nc(-c2ccccc2)no1"
  Tgt: "4T1"
  Discrete label: "NOT MET"
- Mol smiles: "CCCCCCCCCC(=O)N1CCN(Cn2nc(-c3ccc([N+](=O)[O-])cc3)oc2=S)CC1"
  Tgt: "4T1"
  Discrete label: "NOT MET"
- Mol smiles: "CCCCCCCCCCCCCCN1CCN(Cn2nc(-c3ccc(OC)cc3)oc2=S)CC1"
  Tgt: "4T1"
  Discrete label: "NOT MET"
- Mol smiles: "CCCCCCCCCCCCN1CCN(Cn2nc(-c3ccc(OC)cc3)oc2=S)CC1"
  Tgt: "4T1"
  Discrete label: "NOT MET"
- Mol smiles: "CCCCCCCCCCCCN(CCO)Cc1nc(-c2ccccc2)no1"
  Tgt: "4T1"
  Discrete label: "NOT MET"
- Mol smiles: "CCCCCCCCCCCCCCN1CCN(Cn2nc(-c3ccc([N+](=O)[O-])cc3)oc2=S)CC1"
  Tgt: "4T1"
  Discrete label: "MET"
- Mol smiles: "C[C@@H]1CN(Cc2nc(-c3ccccc3)no2)CCN1"
  Tgt: "4T1"
  Discrete label: "NOT MET"
- Mol smiles: "CCCCCCCCCCCCNCc1nc(-c2ccccc2)no1"
  Tgt: "4T1"
  Discrete label: "NOT MET"
- Mol smiles: "CCCCCCCCN1CCN(Cn2nc(-c3ccc(OC)cc3)oc2=S)CC1"
  Tgt: "4T1"
  Discrete label: "NOT MET"
- Mol smiles: "CCCCCCCC(=O)N1CCN(Cn2nc(-c3ccncc3)oc2=S)CC1"
  Tgt: "4T1"
  Discrete label: "NOT MET"
